target: Sodium channel alpha subunits; brain (Types I, II, III) (Rattus norvegicus, UniProt P04775+P04774+P08104); experiment: In vitro inhibition of Voltage-gated sodium channel by the displacement of [3H]batrachotoxin A 20-alpha-benzoate in rat brain cerebral cortex synaptoneurosomes; type: tissue-based
PROPERTY NAME: IC50 (µM)

COMPOUND: CCCCCCCCCC1(c2ccccc2)NC(=O)NC1=O (stereo not given)
READOUT VALUE: 5

COMPOUND: CCCCCCCC(O)(C(N)=O)c1ccccc1 (stereo not given)
READOUT VALUE: 9

COMPOUND: O=C1NC(=O)C(c2ccccc2)(C2CCCCC2)N1 (stereo not given)
READOUT VALUE: 58

COMPOUND: CCCCCCC1(c2ccccc2)NC(=O)NC1=O (stereo not given)
READOUT VALUE: 13

COMPOUND: CCCCCCCC1(c2ccccc2)NC(=O)NC1=O (stereo not given)
READOUT VALUE: 5

Data origin: ChEMBL document CHEMBL1132715
